- Tested on: Ruminococcus gnavus DSM 108212
- Procedure Summary: fold change of Tryptamine concentration vs plate DMSO controls (fold change (ratio)); higher = more amine produced, active = hit call of the paper (significant change in both replicates, either direction)
- Settings: 20 µM; incubation time: 27 h, anaerobic, 37 °C
Structures can show the parent of a compound that is named as a salt.
Property Name: fold change of Tryptamine concentration

INSERT INTO assay_data (compound, observed_value) VALUES
  ('CCOc1cc(Oc2ccc(C(F)(F)F)cc2Cl)ccc1[N+](=O)[O-]', 1.04),
  ('c1cc2c3c(cccc3c1)CC2', 1.01),
  ('CC[C@@H](C(N)=O)N1CCCC1=O', 1.07),
  ('CCN(C)C(=O)Oc1cccc([C@H](C)N(C)C)c1', 1.13),
  ('Oc1cc(Cl)ccc1Oc1ccc(Cl)cc1Cl', 0.715),
  ('CCCSP(=O)(OCC)Oc1ccc(Br)cc1Cl (stereo not given)', 0.941),
  ('CSc1nc(NC(C)C)nc(NC(C)C)n1', 0.955),
  ('N#C/N=C1\SCCN1Cc1ccc(Cl)nc1', 1),
  ('CC(=O)OCC(=O)[C@H]1CC[C@H]2[C@@H]3CC[C@H]4C[C@H](O)CC[C@]4(C)[C@H]3C(=O)C[C@]12C [Alfadolone acetate]', 1.02),
  ('CN(C)[C@@H]1C(=O)C(C(N)=O)=C(O)[C@@]2(O)C(=O)C3=C(O)c4c(O)cccc4[C@@](C)(O)[C@H]3[C@H](O)[C@@H]12 [Oxytetracycline dihydrate]', 0.898),
  ('CCOCn1c(-c2ccc(Cl)cc2)c(C#N)c(Br)c1C(F)(F)F', 1.02),
  ('COc1ccc(C(=O)N2CCCC2=O)cc1', 1.03),
  ('COc1cc2c(c(OC)c1OC)-c1ccc(OC)c(=O)cc1[C@@H](NC(C)=O)CC2', 0.889),
  ('CCN[C@@H](C)Cc1cccc(C(F)(F)F)c1 [Dexfenfluramine hydrochloride]', 1.07),
  ('CCCCN(CCCC)N=O', 1.01),
  ('CS(=O)(=O)NC(=O)c1cc(Oc2ccc(C(F)(F)F)cc2Cl)ccc1[N+](=O)[O-]', 1.02),
  ('CC(Cc1ccccc1)NCCC(c1ccccc1)c1ccccc1 (stereo not given) [Prenylamine lactate]', 0.913),
  ('Cc1cc(C(C#N)c2ccc(Cl)cc2)c(Cl)cc1NC(=O)c1cc(I)cc(I)c1O (stereo not given)', 0.121),
  ('N#CCNC(=O)c1cnccc1C(F)(F)F', 1),
  ('CCN(CC)c1nc(C)cc(OP(=S)(OC)OC)n1', 1.06);

* * *

- System: Escherichia coli IAI1
- Procedure Summary: growth (OD595) fold change vs plate DMSO controls (fold change (ratio)); higher = more growth
- Settings: 20 µM; incubation time: 27 h, anaerobic, 37 °C
Measured growth values are reported for all entries that follow.
Property Name: growth

INSERT INTO assay_data (compound, property_name, observed_value) VALUES
  ('O=C(O)C(F)(F)C(F)(F)C(F)(F)C(F)(F)C(F)(F)C(F)(F)C(F)(F)C(F)(F)C(F)(F)F [PFDeA (Perfluorodecanoic acid)]', 'growth', 1.04),
  ('CCCN(CCOc1c(Cl)cc(Cl)cc1Cl)C(=O)n1ccnc1', 'growth', 0.976),
  ('C[C@@H]1C[C@@H]([C@H](O)CC2CC(=O)NC(=O)C2)C(=O)[C@@H](C)C1 [Cycloheximide]', 'growth', 0.978),
  ('O=C(O)C(F)(F)C(F)(F)C(F)(F)C(F)(F)C(F)(F)C(F)(F)F [PFHpA (Perfluoroheptanoic acid)]', 'growth', 1.01);

* * *

- Test system: Klebsiella aerogenes DSM 30053
- Procedure Summary: growth (OD595) fold change vs plate DMSO controls (fold change (ratio)); higher = more growth
- Settings: 20 µM; incubation time: 27 h, anaerobic, 37 °C
Parameter growth: see the listing below.
Property Name: growth

INSERT INTO assay_data (compound, observed_value) VALUES
  ('CC1(C)C(C=C(Cl)Cl)C1C(=O)OC(C#N)c1ccc(F)c(Oc2ccccc2)c1 (mixture of isomers)', 0.965),
  ('O=C(CCCN1CCC2(CC1)C(=O)NCN2c1ccccc1)c1ccc(F)cc1 [Spiperone]', 0.968),
  ('COCC(C)N(C(=O)CCl)c1c(C)csc1C (centres undefined)', 1.03),
  ('CN[C@@H]1[C@@H](O)[C@@H](O[C@@H]2[C@@H](O)[C@H](O[C@H]3O[C@H](CN)CC[C@H]3N)[C@@H](N)C[C@H]2N)OC[C@]1(C)O.CN[C@@H]1[C@@H](O)[C@@H](O[C@@H]2[C@@H](O)[C@H](O[C@H]3O[C@H]([C@@H](C)N)CC[C@H]3N)[C@@H](N)C[C@H]2N)OC[C@]1(C)O.CN[C@@H]1[C@@H](O)[C@@H](O[C@@H]2[C@@H](O)[C@H](O[C@H]3O[C@H]([C@@H](C)NC)CC[C@H]3N)[C@@H](N)C[C@H]2N)OC[C@]1(C)O [Gentamicine sulfate]', 0.994);

* * *

- System: Klebsiella aerogenes DSM 30053
- Procedure Summary: fold change of Putrescine concentration vs plate DMSO controls (fold change (ratio)); higher = more amine produced, active = hit call of the paper (significant change in both replicates, either direction)
- Settings: 20 µM; incubation time: 27 h, anaerobic, 37 °C
Where a name gives a salt, the structure may show the parent alone.
Property Name: fold change of Putrescine concentration

INSERT INTO results (compound, assay_system, observed_value) VALUES
  ('COc1ccc(C(=CC(=O)N2CCOCC2)c2ccc(Cl)cc2)cc1OC (mixture of isomers)', 'Klebsiella aerogenes DSM 30053', 0.965),
  ('COc1cccc(C(=O)NN(C(=O)c2cc(C)cc(C)c2)C(C)(C)C)c1C', 'Klebsiella aerogenes DSM 30053', 0.983),
  ('C#C[C@]1(O)CC[C@H]2[C@@H]3CCC4=CC(=O)CCC4=C3C=C[C@@]21CC', 'Klebsiella aerogenes DSM 30053', 0.96),
  ('CC(C)N(C(=O)COc1nnc(C(F)(F)F)s1)c1ccc(F)cc1', 'Klebsiella aerogenes DSM 30053', 1),
  ('O=C1C=CC(=O)C=C1', 'Klebsiella aerogenes DSM 30053', 1),
  ('CCCCc1c(C)nc(NCC)nc1OS(=O)(=O)N(C)C', 'Klebsiella aerogenes DSM 30053', 0.995),
  ('CNC(=O)c1cc(Cl)cc(C)c1NC(=O)c1cc(Br)nn1-c1ncccc1Cl', 'Klebsiella aerogenes DSM 30053', 0.982),
  ('O=[N+]([O-])c1ccc2ccc3cccc4ccc1c2c34', 'Klebsiella aerogenes DSM 30053', 1),
  ('Nc1nc(N)nc(N)n1', 'Klebsiella aerogenes DSM 30053', 0.956),
  ('Cc1nnc(-c2ccccc2)c(=O)n1N', 'Klebsiella aerogenes DSM 30053', 1),
  ('C[C@@H]1CN([C@H]2CC[C@](C#N)(c3ccc(F)cc3)CC2)CC[C@]1(C(=O)O)c1ccccc1 [Levocabastine hydrochloride]', 'Klebsiella aerogenes DSM 30053', 1),
  ('O=C1C2CC=CCC2C(=O)N1SC(Cl)(Cl)Cl (stereo not drawn)', 'Klebsiella aerogenes DSM 30053', 0.956),
  ('CCN(C(C)=O)c1cccc(-c2ccnc3c(C#N)cnn23)c1', 'Klebsiella aerogenes DSM 30053', 0.992),
  ('O=C(CCCN1CCC2(CC1)C(=O)NCN2c1ccccc1)c1ccc(F)cc1', 'Klebsiella aerogenes DSM 30053', 1.01),
  ('NCCCNCCSP(=O)(O)O', 'Klebsiella aerogenes DSM 30053', 0.999),
  ('CN1[C@@H]2C[C@@H](OC(=O)[C@H](CO)c3ccccc3)C[C@H]1[C@@H]1O[C@@H]12 [Scopolamine hydrochloride]', 'Klebsiella aerogenes DSM 30053', 0.965),
  ('O=C(O[C@H]1C[N+]2(CCCOc3ccccc3)CCC1CC2)C(O)(c1cccs1)c1cccs1 [Aclidinium bromide]', 'Klebsiella aerogenes DSM 30053', 1),
  ('C=CC[C@]1(O)CC[C@H]2[C@@H]3CCC4=CCCC[C@@H]4[C@H]3CC[C@@]21C', 'Klebsiella aerogenes DSM 30053', 0.992),
  ('CN(C)[C@@H]1C(=O)C(C(N)=O)=C(O)[C@@]2(O)C(=O)C3=C(O)c4c(O)ccc(Cl)c4[C@@](C)(O)[C@H]3C[C@@H]12 [Chlortetracycline hydrochloride]', 'Klebsiella aerogenes DSM 30053', 0.47),
  ('C#C[C@]1(O)CC[C@H]2[C@@H]3CCC4=CC(=O)CC[C@]4(C)[C@H]3CC[C@@]21C', 'Klebsiella aerogenes DSM 30053', 1.04),
  ('CC[C@@H](C(N)=O)N1CCCC1=O', 'Klebsiella aerogenes DSM 30053', 0.951),
  ('C[C@]12CCC(=O)C(O)=C1CC[C@@H]1[C@@H]2CC[C@]2(C)C(=O)CC[C@@H]12', 'Klebsiella aerogenes DSM 30053', 1.01),
  ('CON(C)C(=O)Nc1ccc(Cl)c(Cl)c1', 'Klebsiella aerogenes DSM 30053', 1.02),
  ('O=P1(N(CCCl)CCCl)NCCCO1 (stereo not drawn) [Cyclophosphamide]', 'Klebsiella aerogenes DSM 30053', 1.01),
  ('c1cc2c3c(cccc3c1)CC2', 'Klebsiella aerogenes DSM 30053', 1.02),
  ('C[N+](C)(C)CCCl', 'Klebsiella aerogenes DSM 30053', 0.82),
  ('C=C(C)[C@@H]1[C@H]2OC(=O)[C@@H]1[C@]1(O)C[C@H]3O[C@]34C(=O)O[C@H]2[C@]14C', 'Klebsiella aerogenes DSM 30053', 0.932),
  ('CN1CCC2(C)c3cc(O)ccc3N(C)C12 (single isomer, unassigned; (-)) [(-) Eseroline fumarate salt]', 'Klebsiella aerogenes DSM 30053', 1),
  ('c1ccc2c(c1)Nc1ccccc1S2', 'Klebsiella aerogenes DSM 30053', 0.953),
  ('C#C[C@]1(O)C=C[C@H]2[C@@H]3CCC4=CC(=O)CC[C@@H]4[C@H]3CC[C@@]21CC', 'Klebsiella aerogenes DSM 30053', 0.993),
  ('CCC1(c2cccc(O)c2)CCCCN(C)C1 (stereo not drawn) [Meptazinol hydrochloride]', 'Klebsiella aerogenes DSM 30053', 1),
  ('CNC(=O)c1cc(C#N)cc(C)c1NC(=O)c1cc(Br)nn1-c1ncccc1Cl', 'Klebsiella aerogenes DSM 30053', 0.938),
  ('N#Cc1c(Cl)c(Cl)c(Cl)c(C#N)c1Cl', 'Klebsiella aerogenes DSM 30053', 0.995),
  ('C[CH2][Hg][S]c1ccccc1C(=O)[O-].[Na+]', 'Klebsiella aerogenes DSM 30053', 0.953),
  ('CCC(COC(=O)c1cc(OC)c(OC)c(OC)c1)(c1ccccc1)N(C)C (stereo not drawn)', 'Klebsiella aerogenes DSM 30053', 1.01),
  ('CCC(=O)Nc1ccc(Cl)c(Cl)c1', 'Klebsiella aerogenes DSM 30053', 0.863),
  ('CCC1(CC)C(=O)C=CNC1=O', 'Klebsiella aerogenes DSM 30053', 1.03),
  ('O=C(NCCc1ncc(C(F)(F)F)cc1Cl)c1ccccc1C(F)(F)F', 'Klebsiella aerogenes DSM 30053', 1.03);
